# Test Method Notes: melting temperature; melt of duplexes
# Test Context: sodium 0.0675 M; strand 1 µM
Doc: threshold 50 °C (exclusive). Items with Tm beneath it return Yes; others return No.

[
  {
    "Substance": "CGACGTGCTCTATGTGCTG+CAGCACATTCCGCACGTCG ((((((((...((((((((+))))))))...))))))))",
    "Label Class": "Yes"
  },
  {
    "Substance": "CGACGTGCTGAATGTGCTG+CAGCACATGAAGCACGTCG (((((((((..((((((((+))))))))..)))))))))",
    "Label Class": "No"
  }
]
